Values were extracted from patent US7169932B2.

Molecular target: HIV-1 protease (Q7S) (Human immunodeficiency virus type 1 group M subtype B, UniProt P04585, Q495S)
Construct: made in house
Experiment: HIV-1 Protease RET Assay
Type: biochemical
Settings: Ki, table of drawn compounds, unit inferred
The entries below come with measured Ki values attached.
experimentalReadout: Ki (µM)

>>> numericvalue("C=CCN(C)C(=O)[C@H]1N(C(=O)[C@@H](O)[C@H](Cc2ccccc2)NC(=O)c2ccno2)CSC1(C)C")
0.0246
>>> numericvalue("Cc1c(O)cccc1C(=O)N[C@@H](Cc1ccccc1)[C@H](O)C(=O)N1CSC(C)(C)C1C(=O)NCCc1ccc(O)cc1 (stereo partly shown)")
0.0131
>>> numericvalue("Cc1ccccc1CNC(=O)[C@H]1N(C(=O)[C@@H](O)[C@H](Cc2ccccc2)NC(=O)c2ccccc2Cl)CSC1(C)C")
0.0002

====

Target: HIV-1 protease (Q7S) (Human immunodeficiency virus type 1 group M subtype B, UniProt P04585, Q495S)
Construct: made in house
Experiment: HIV-1 Protease RET Assay
Format: biochemical
Details: Ave. Ki (nM), RET assay, Q7S enzyme, pH 4.8, 37 C
experimentalReadout: Ki

>>> result("Cc1c(O)cccc1C(=O)N[C@@H](Cc1ccccc1)[C@H](O)C(=O)N1CSC(C)(C)[C@H]1C(=O)NCC(=O)c1ccccc1")
"51 nM"
>>> result("Cc1noc(C)c1C(=O)N[C@@H](Cc1ccccc1)[C@H](O)C(=O)N1CSC(C)(C)[C@H]1C(=O)NCc1ccccc1Cl")
"0.42 nM"
>>> result("Cc1ccccc1CNC(=O)[C@H]1N(C(=O)[C@@H](O)[C@H](Cc2ccccc2)NC(=O)c2ccnc(Cl)c2Cl)CSC1(C)C")
"0.15 nM"

====

Tested on: HIV-1
Experiment: Cytopathic Effect (CPE) Inhibition Assay (XTT dye reduction)
Type: cell-based
Details: Human immunodeficiency virus 1
pEC50: −log10 of the molar value.
Label No if pEC50 falls below 6; label Yes in every other case.

>>> discretelabel("Cc1c(O)cccc1C(=O)N[C@@H](Cc1ccccc1)[C@H](O)C(=O)N1CSC(C)(C)[C@H]1C(=O)NCc1cc(F)cc(F)c1")
"Yes"
>>> discretelabel("Cc1cc(C(=O)N[C@@H](Cc2ccccc2)[C@H](O)C(=O)N2CSC(C)(C)[C@H]2C(=O)NCc2ccc(Cl)cc2C)no1")
"No"
>>> discretelabel("Cc1c(O)cccc1C(=O)N[C@@H](Cc1ccccc1)[C@H](O)C(=O)N1CSC(C)(C)[C@H]1C(=O)NCc1ccc(F)c(F)c1F")
"Yes"

====

Molecular target: HIV-1 protease (Q7S) (Human immunodeficiency virus type 1 group M subtype B, UniProt P04585, Q495S)
Construct: made in house
Experiment: HIV-1 Protease RET Assay
Assay type: biochemical
Settings: Ave. Ki (nM), RET assay, Q7S enzyme, pH 4.8, 37 C
The entries below come with measured Ki values attached.
experimentalReadout: Ki (nM)

>>> numericvalue("Cc1ccccc1CNC(=O)[C@H]1N(C(=O)[C@@H](O)[C@H](Cc2ccccc2)NC(=O)c2sc(N)nc2C)CSC1(C)C [Example B15]")
2
>>> numericvalue("Cc1c(O)cccc1C(=O)N[C@@H](Cc1ccccc1)[C@H](O)C(=O)N1CSC(C)(C)[C@H]1C(=O)NCc1cccc(N(C)C)c1 [Example A39]")
0.27
>>> numericvalue("Cc1c(O)cccc1C(=O)N[C@@H](Cc1ccccc1)[C@H](O)C(=O)N1CSC(C)(C)[C@H]1C(=O)NCc1ccc(F)cc1C(F)(F)F [Example A12]")
1.7
>>> numericvalue("Cc1c(O)cccc1C(=O)N[C@@H](Cc1ccccc1)[C@H](O)C(=O)N1CSC(C)(C)[C@H]1C(=O)NCc1ccccc1O [Example A44]")
0.14

====

System: HIV-1
Test: Cytopathic Effect (CPE) Inhibition Assay (XTT dye reduction)
Type: cell-based
Settings: Human immunodeficiency virus 1
Source text: T-cell lines, CEM-SS, and MT-2, and viruses HIV-1 RF and HIV-1 NL4–3 (pNL4–3) were obtained from the National Institutes of Health (AIDS Research and Reference Reagent Program, Bethesda, Md.). […]
pEC50: −log10 of the molar value.
experimentalReadout: pEC50

>>> numericvalue("Cc1ccccc1CNC(=O)[C@H]1N(C(=O)[C@@H](O)[C@H](Cc2ccccc2)NC(=O)c2csc(N)n2)CSC1(C)C")
5.86
>>> numericvalue("Cc1cc(Cl)ccc1CNC(=O)[C@H]1N(C(=O)[C@@H](O)[C@H](Cc2ccccc2)NC(=O)c2cccc(O)c2C)CSC1(C)C")
6.68
>>> numericvalue("Cc1c(O)cccc1C(=O)N[C@@H](Cc1ccccc1)[C@H](O)C(=O)N1CSC(C)(C)[C@H]1C(=O)NCc1cccc(CN(C)C)c1")
5.49
>>> numericvalue("Cc1c(O)cccc1C(=O)N[C@@H](Cc1ccccc1)[C@H](O)C(=O)N1CSC(C)(C)[C@H]1C(=O)c1ccccc1")
5.91
>>> numericvalue("Cc1c(O)cccc1C(=O)N[C@@H](Cc1ccccc1)[C@H](O)C(=O)N1CSC(C)(C)[C@H]1C(=O)NCC(C)(C)C")
7.28

====

Molecular target: HIV-1 protease (Q7S) (Human immunodeficiency virus type 1 group M subtype B, UniProt P04585, Q495S)
Construct: made in house
Assay: HIV-1 Protease RET Assay
Format: biochemical
Settings: table of drawn compounds, unit inferred; read-out: Ki
experimentalReadout: Ki (nM)

>>> numericvalue("Cc1ccccc1CNC(=O)[C@H]1N(C(=O)[C@@H](O)[C@H](Cc2ccccc2)NC(=O)Cc2c(F)cccc2F)CSC1(C)C")
72

====

Biological target: HIV-1 protease (Q7S) (Human immunodeficiency virus type 1 group M subtype B, UniProt P04585, Q495S)
Construct: made in house
Experiment: HIV-1 Protease RET Assay
Assay type: biochemical
Settings: Ave. Ki (nM), RET assay, Q7S enzyme, pH 4.8, 37 C
experimentalReadout: log10 of Ki (log10 of the value in nM)

>>> numericvalue("COc1ccc(C(=O)NC(Cc2ccccc2)C(O)C(=O)N2CSC(C)(C)[C@H]2C(=O)NCc2ccccc2C)c(C)c1 (stereo in doubt) [Example B29]")
-0.92
>>> numericvalue("Cn1cccc1C(=O)N[C@@H](Cc1ccccc1)[C@H](O)C(=O)N1CSC(C)(C)[C@H]1C(=O)NCc1c(F)cccc1F [Example B24]")
0.74
>>> numericvalue("Cc1c(O)cccc1C(=O)N[C@@H](Cc1ccccc1)[C@H](O)C(=O)N1CSC(C)(C)[C@H]1C(=O)N[C@H](C)c1ccccc1 [Example A21]")
0.28
>>> numericvalue("C=CCNC(=O)[C@H]1N(C(=O)[C@@H](O)[C@H](Cc2ccccc2)NC(=O)c2cccc(O)c2C)CSC1(C)C [Example A14]")
-0.36
>>> numericvalue("Cc1c(O)cccc1C(=O)N[C@@H](Cc1ccccc1)[C@H](O)C(=O)N1CSC(C)(C)[C@H]1C(=O)NCc1c(F)cccc1C(F)(F)F [Example A24]")
-0.74
>>> numericvalue("CNCCNC(=O)[C@H]1N(C(=O)[C@@H](O)[C@H](Cc2ccccc2)NC(=O)c2cccc(O)c2C)CSC1(C)C [Example A52]")
1.57
>>> numericvalue("CCCN(C)C(=O)[C@H]1N(C(=O)[C@@H](O)[C@H](Cc2ccccc2)NC(=O)c2cccc(O)c2C)CSC1(C)C [Example A46]")
-0.51
>>> numericvalue("Cc1ccccc1CNC(=O)[C@H]1N(C(=O)[C@@H](O)[C@H](Cc2ccccc2)NC(=O)c2ccno2)CSC1(C)C [Example B2]")
-0.11
>>> numericvalue("Cc1c(O)cccc1C(=O)NC(Cc1ccccc1)C(O)C(=O)N1CSC(C)(C)C1C(=O)NCc1cccc(C(F)(F)F)c1 (stereo not shown) [Example A4]")
0.61
>>> numericvalue("COc1cccc(CNC(=O)[C@H]2N(C(=O)[C@@H](O)[C@H](Cc3ccccc3)NC(=O)c3cccc(F)c3C)CSC2(C)C)c1 [Example B32]")
0.69
>>> numericvalue("CCCNC(=O)[C@H]1N(C(=O)[C@@H](O)[C@H](Cc2ccccc2)NC(=O)c2cccc(F)c2C)CSC1(C)C [Example B31]")
0.18
>>> numericvalue("Cc1ccccc1CN(C)C(=O)[C@H]1N(C(=O)[C@@H](O)[C@H](Cc2ccccc2)NC(=O)c2cccc(O)c2C)CSC1(C)C [Example A7]")
-0.31
>>> numericvalue("CCOc1cccc(CNC(=O)[C@H]2N(C(=O)[C@@H](O)[C@H](Cc3ccccc3)NC(=O)c3cccc(O)c3C)CSC2(C)C)c1 [Example A26]")
-0.42
>>> numericvalue("CC/C=C\\CNC(=O)[C@H]1N(C(=O)[C@@H](O)[C@H](Cc2ccccc2)NC(=O)c2cccc(O)c2C)CSC1(C)C [Example A37]")
-0.89
>>> numericvalue("Cc1ccccc1CNC(=O)[C@H]1N(C(=O)[C@@H](O)[C@H](Cc2ccccc2)NC(=O)c2cc(Cl)on2)CSC1(C)C [Example B4]")
0.23
>>> numericvalue("Cc1c(O)cccc1C(=O)N[C@@H](Cc1ccccc1)[C@H](O)C(=O)N1CSC(C)(C)[C@H]1C(=O)NCc1ccc(N(C)C)cc1 [Example A15]")
1.04
>>> numericvalue("Cn1cccc1C(=O)N[C@@H](Cc1ccccc1)[C@H](O)C(=O)N1CSC(C)(C)[C@H]1C(=O)NCc1ccccc1C(F)(F)F [Example B26]")
0.46
>>> numericvalue("Cc1ccccc1CNC(=O)[C@H]1N(C(=O)[C@@H](O)[C@H](Cc2ccccc2)NC(=O)c2cccnc2)CSC1(C)C [Example B47]")
0.84
>>> numericvalue("Cc1c(O)cccc1C(=O)N[C@@H](Cc1ccccc1)[C@H](O)C(=O)N1CSC(C)(C)[C@H]1C(=O)NCc1cccc(OC(F)(F)F)c1 [Example A25]")
0.76
>>> numericvalue("Cc1c(O)cccc1C(=O)N[C@@H](Cc1ccccc1)[C@H](O)C(=O)N1CSC(C)(C)[C@H]1C(=O)NCc1ccc(C(F)(F)F)c(F)c1 [Example A11]")
1.28
>>> numericvalue("Cc1ccccc1CNC(=O)[C@H]1N(C(=O)[C@@H](O)[C@H](Cc2ccccc2)NC(=O)c2ccon2)CSC1(C)C [Example B3]")
0.60
>>> numericvalue("Cc1ccccc1CNC(=O)C1N(C(=O)[C@@H](O)[C@H](Cc2ccccc2)NC(=O)c2cccnc2C)CSC1(C)C (stereo partly shown) [Example B44]")
-0.12
